Data provenance is PubChem BioAssay (NCI).

Catalogue of growth values
# System: MCF7 breast
# experimentDescription: NCI-60 one-dose screen, 48 h (100 = growth as untreated, 0 = no growth, -100 = all killed)
# assayConditions: 10 µM
About 83,000 compounds went through this panel and 20% of them were active in at least one assay; those are over-represented in the sample as a whole.
Return type: number; implicit unit %.

Solved entries:
molecule: CC(=O)c1ccc2oc(=O)n(Cc3ccc(C#N)cc3)c(=O)c2c1
systemTested: MCF7 breast
growth (%): 98.9
//
molecule: COc1ccc(OC)c(NC(=O)/C(C#N)=C/c2ccco2)c1
systemTested: MCF7 breast
growth (%): 47.9

Q. Give recorded growth with MCF7 breast for the following molecule: CC1(C)CC2(C)OC2C2(C1)N=NC(=Nc1ccccc1)O2 (centres undefined)
A. 23.9

Q. Same for `COc1ccc(Cn2c(Br)c3c(c2-c2cc(OC)c(OC)c(OC)c2)CCc2sc(NC(C)=O)nc2-3)cc1`
A. 16.3

Q. And the next one, CSc1nc2c(c(=O)[nH]1)N=C1c3ccccc3C(=O)C1C(c1ccc(F)cc1)N2 (centres undefined) ?
A. 40.4

Q. Repeat with COc1ccc(C2NCCc3c2[nH]c2ccccc32)cc1CN1CCN(c2ccc(F)cc2)CC1 (centres undefined)
A. 33.9

Q. `CC[C@]1(O)C[C@@H]2CN(CCc3c([nH]c4ccccc34)[C@@](C(=O)OC)(c3cc4c(cc3OC)N(C)[C@H]3[C@@](O)(C(=O)OC)[C@H](OC(=O)CCCBr)[C@]5(CC)C=CCN6CC[C@]43[C@@H]65)C2)C1` , same question.
A. 12.9

###

# Test system: UACC-62 melanoma
# experimentDescription: NCI-60 one-dose screen, 48 h (100 = growth as untreated, 0 = no growth, -100 = all killed)
# assayConditions: 10 µM unless noted
This is part of a sample that, as a whole, favours compounds with a hit. Of some 83,000 tested, about 20% had one in any assay.
valueType: growth (%)
Lab book: enter the figure in %, no units written.

Below, each entry is followed by its recorded growth result.
molecule: COc1cc(-c2c3c(cn2S(=O)(=O)c2ccccc2)-c2nc(N)sc2CC3)cc(OC)c1OC
measurementUnit: %
recordedMeasurement: 51.1
--
molecule: O=c1oc2ccc(F)cc2c(=O)n1-c1ccc(I)cc1F
measurementUnit: %
recordedMeasurement: -16.4

Q. # value lookup — system UACC-62 melanoma, readout growth, item O=C(NCc1ccccc1)C1CN(c2ccc(Cl)cc2)N(c2ccc(Cl)cc2)C1=O (stereo not given)
A. 58.7

Q. What do we get for `CC[C@]1(O)C[C@@H]2CN(CCc3c([nH]c4ccccc34)[C@@](C(=O)OC)(c3cc4c(cc3OC)N(C)[C@H]3[C@@](O)(C(=O)OC)[C@H](OC(C)=O)[C@]5(CC)C=CCN6CC[C@]43[C@@H]65)C2)C1` ?
A. 34.4

Q. Now try COc1ccccc1N1CCN(C(CNS(=O)(=O)c2ccc(Cl)cc2)c2cccnc2)CC1 (stereo not given) .
A. 100

Q. Similarly, `O=C(Nc1nc2c(s1)CCc1c-2c(Br)n(Cc2ccccc2)c1Br)c1ccccc1` ?
A. 62.4

Q. Also need `O=C(CCc1nnc2sc(-c3ccc(Cl)cc3Cl)nn12)c1nc2ncccc2[nH]1` , thanks.
A. -36.6

Q. Also, `COc1ccc(-c2cn[nH]c2-c2ccc(OC)c(O)c2)cc1` please.
A. 66

Q. Here is the next molecule: `NCCOc1ncccc1/C=C1\c2ccccc2-c2ccc(F)cc21`
A. 34.8

Q. Proceed to `CC(=O)c1ccc(NC(=O)Nc2ccc(S(=O)(=O)Nc3ccc(Cl)nn3)cc2)cc1`
A. 92

Q. How about this molecule: `COc1ccc(/C=C2\N=C(c3ccccc3)N(c3ccc(-c4nc5ccc(C)cc5s4)cc3)C2=O)cc1`
A. 73.2

Q. Also `O=C(Cn1cc(COc2ncnc3c2cnn3-c2ccccc2)nn1)Nc1cccc2ccccc12` , if possible.
A. 83.9
